Kindly state TGI for each of the entries shown.
- Test system: SNB-19 CNS
- TEST_NAME: NCI tumour cell line growth inhibition, 48 h

**Query** Supply measured TGI of `NS(=O)(=O)c1ccc(NNc2c3ccccc3nc3c(C(=O)Nc4ccc(S(N)(=O)=O)cc4)cccc23)cc1` in your reply.
**Result** > 100 µM

**Query** Query TGI for CC(=O)OCC1OC(NC(=S)Nn2c(-c3ccccc3)nc3ccccc3c2=O)C(OC(C)=O)C(OC(C)=O)C1OC(C)=O (stereo not drawn)
**Result** > 100 µM

**Query** For the compound Nc1nc(N)c2nc(CNc3ccc(C(=O)NC(CCC(=O)O)C(=O)O)cc3)cnc2n1 (stereo not drawn) , report TGI.
**Result** > 100 µM

**Query** Give the reported TGI for this compound. C[C@H]1CC(=O)C[C@@H]2CC[C@@H]3[C@H](CC[C@]4(C)C(OC(=O)c5cccc6c(=O)c7ccccc7[nH]c56)CC[C@@H]34)[C@]21C (stereo partly drawn)
**Result** > 100 µM

**Query** Please look at this compound and report its TGI: COc1cc(CC2c3cc(OC)c(OC)cc3CCN2C)c(C(=O)O)cc1OC (stereo not drawn)
**Result** > 100 µM

**Query** Given `CCOc1ccc(/C=C/C(=O)c2sc(NNC(C)=O)nc2C)cc1` , respond with its TGI.
**Result** > 100 µM

**Query** Read off the recorded TGI for O=C(c1ccccc1)N1N=C(C(F)(F)F)CC1(O)C(F)(F)F (stereo not drawn)
**Result** > 100 µM

**Query** Respond only with TGI recorded for O=C(CC1(O)C(=O)Nc2ccc(Br)cc21)c1cccc([N+](=O)[O-])c1 (stereo not drawn)
**Result** > 100 µM

**Query** Look up TGI of `CCOC(=O)c1cn2c(n1)sc1cc([N+](=O)[O-])ccc12` and report it.
**Result** > 100 µM

**Query** Supply measured TGI of `C=CN(C(=O)N1CCN(c2cc3c(cc2F)c(=O)c(C(=O)O)cn3C2CC2)CC1)c1nc(-c2ccc(C)cc2)cs1` in your reply.
**Result** > 100 µM

**Query** Tell me measured TGI for `O=C(O)CN1CCN2CCOCCN(CC1)CCN(CC(=O)O)CC2` please.
**Result** > 100 µM

**Query** Identify the reported TGI for the following entry. CC(C(=O)NCNC(=O)c1ccccc1)C(=O)NCc1ccccc1 (stereo not drawn)
**Result** > 100 µM

**Query** For the compound `C[C@@H](NC(=O)Nc1cccc(C(=O)Nc2cc(C(C)(C)C)ccc2C(=O)O)n1)c1ccccc1` , give its reported TGI.
**Result** > 100 µM

###

- Test system: M14 melanoma
- TEST_NAME: NCI tumour cell line growth inhibition, 48 h
MEASUREMENT_KIND: TGI

**Query** Please give measured TGI of the following entry: CC(C)OC(=O)OCOP(=O)(OCOC(=O)OC(C)C)C1CCCN(O)C1=O (stereo not drawn)
**Result** > 100 µM

**Query** Tell us which TGI value is on record for Cc1cc(Br)ccc1N=NC1C(=O)ON=C1c1ccccc1 (stereo not drawn)
**Result** > 100 µM

**Query** State its TGI: O=c1ccn([C@@H]2C[C@H](CO)CS(=O)C2)c(=O)[nH]1 (stereo partly drawn)
**Result** > 100 µM

###

Answer each item with its documented TGI.
- System: MDA-N
- TEST_NAME: NCI tumour cell line growth inhibition, 48 h

**Query** Identify TGI associated with the compound `CC(=O)O[C@H]1CC[C@@]2(C)C(=CC[C@@H]3[C@@H]2CC[C@]2(C)C(=O)/C(=C\c4ccccc4)C[C@@H]32)C1`
**Result** > 100 µM

**Query** Name the recorded TGI of the item `O=C(NNC(=O)c1cc2ccccc2[nH]1)c1cc2ccccc2[nH]1` in your answer.
**Result** > 100 µM

**Query** Return reported TGI. Input compound: `COC(=O)c1nc2n(n1)-c1ccccc1C(=O)N(Cc1ccccc1)C2`
**Result** > 100 µM

**Query** Report measured TGI; entry is CS(=O)c1cc(=O)c2ccccc2s1 (stereo unspecified)
**Result** 7.13 µM

**Query** Complete the entry with TGI for `Cc1nnc(NS(=O)(=O)c2ccc(N=Nc3c(O)c(C(=O)O)cc4ccccc34)cc2)s1`
**Result** > 100 µM

**Query** Determine its reported TGI: `O=c1oc2cc(O)ccc2c(O)c1C(c1ccc(/C=C/c2ccccc2)cc1)c1c(O)c2ccc(O)cc2oc1=O`
**Result** > 100 µM

###

Give TGI for every item shown.
- Test system: M14 melanoma
- TEST_NAME: NCI tumour cell line growth inhibition, 48 h

**Query** Give recorded TGI. COc1ccc2c(c1)OCC1c3cc(OC)ccc3OC21 (stereo not drawn)
**Result** > 100 µM

**Query** # return recorded TGI for entry `O=C(/C=C/c1ccccc1)c1ccccn1`
**Result** 29.9 µM

**Query** Return value of TGI for input `FC(F)(F)c1ccc(-c2cnc(-c3nn[nH]n3)nc2NC2CCCCCC2)cc1` , no commentary.
**Result** > 10 µM

###

- System: MDA-N
- TEST_NAME: NCI tumour cell line growth inhibition, 48 h
Exercise: for every item that follows, state its recorded TGI.

**Query** Note down TGI recorded for O=[N+]([O-])C1=Cc2c(O)ccc(O)c2C2c3ccccc3NC12 (centres undefined)
**Result** 39.3 µM

**Query** Find the measured TGI of `O=[N+]([O-])c1ccc(-c2ccc([C@H]3CC(c4cc(F)c(Cl)cc4Cl)=NN3)o2)cc1` and report it.
**Result** > 100 µM

**Query** Respond only with TGI recorded for `COc1ccc(N(c2ccc(C#N)cc2)c2ccc(C#N)cc2)cc1`
**Result** > 100 µM

**Query** Supply reported TGI belonging to this compound: `CC(C)CCNC(=O)c1ccc(CNC(=O)/C=C/c2ccc3c(c2)-c2ccccc2C3)cc1`
**Result** > 100 µM

###

- Tested on: M14 melanoma
- TEST_NAME: NCI tumour cell line growth inhibition, 48 h
MEASUREMENT_KIND: TGI (µM)
Give the value in µM but do not write µM after it.

**Query** Please indicate TGI recorded for FC(F)(F)c1ccc2c(c1)nc(Cc1ccc(Cl)cc1)n2CC1CCCN2CCCCC12 (stereo not given)
**Result** 4.91

**Query** State, in one line, measured TGI of `CC(=O)[O-].O=C([CH-]C(=O)c1ccccc1)c1ccccc1.O=C([CH-]C(=O)c1ccccc1)c1ccccc1.[Dy+3]`
**Result** 36

###

I'd appreciate it if you could supply TGI values for the items below.
- System: NCI-H226 lung
- TEST_NAME: NCI tumour cell line growth inhibition, 48 h
Your answer is read as µM, so omit the unit and give the number.

**Query** Under NCI-H226 lung, report TGI for COc1ccc(CC(COS(=O)(=O)c2ccc(C)cc2)NS(=O)(=O)c2ccc(C)cc2)cc1 (configuration not stated)
**Result** 27.7

**Query** For NCI-H226 lung, give the measured TGI of the entry CC(=O)Nc1ccc(S(=O)(=O)N2C(=O)CCC2C(=O)Nc2ccccc2)cc1 (configuration not stated)
**Result** 20.9

**Query** Answer briefly: TGI recorded on NCI-H226 lung for `C=C1C(=O)O[C@H]2[C@H]1CC/C(COC(=O)NCc1ccc(Cn3c(=O)sn(CCCI)c3=O)cc1)=C\CC[C@@]1(C)O[C@@H]21`
**Result** 37.7

###

- Tested on: UACC-62 melanoma
- TEST_NAME: NCI tumour cell line growth inhibition, 48 h; in the data active means GI50 below about 0.43 µM; inactive means the rest
Log the outcome using a class from active, inactive

**Query** I would be grateful if you could indicate the recorded call for `CC1(C)N=C(N)N=C(N)N1c1cccc(CC(=O)Nc2ccccc2)c1` .
**Result** inactive

**Query** Tell me the recorded outcome of this test for `CN(C)c1ccc(-c2cc(-c3cccc(NS(C)(=O)=O)c3)nc(N)c2C#N)cc1` .
**Result** active

**Query** Identify the outcome logged in this assay for the molecule shown: `COc1cc2nc(NC3CCC3)nc(NC3CCN(C(C)C)CC3)c2cc1OC`
**Result** inactive

**Query** Record lookup: outcome of this test for N/C(=N\O)c1cn(C2OC(CO)C(O)C2O)c2ncnc(N)c12 (stereo unspecified) ?
**Result** active

**Query** Status in this test for `CN1CC[C@H](N(C)C(=O)N2CC(c3cc(F)ccc3F)=C[C@@]2(CO)c2ccccc2)[C@H](F)C1` ?
**Result** active

**Query** Fill in: this test's call for `CC[C@@]12CC(C(=O)OC)=C3Nc4ccccc4[C@@]34CCN(C[C@H]3O[C@H]31)[C@@H]24` is ___
**Result** inactive

**Query** GET /call?item= `N#CSc1c[nH]c2cccc(/C=C/C(=O)/C=C(O)/C=C/c3cccc4[nH]cc(SC#N)c34)c12` returns the recorded outcome of this test.
**Result** active

**Query** For this molecule, state the assay outcome: `COc1cnc2c(c1)C(=O)c1c-2n(CCCN2CCNCC2)c(=O)c2cc(F)ccc12`
**Result** inactive

**Query** Which outcome did this test record for the molecule `C=C(C)[C@@H]1CC[C@]2(C(=O)OC)CC[C@]3(C)[C@H](CC[C@@H]4[C@@]5(C)CC/C(=N\OCCC(=NCCC#N)NOCCC#N)C(C)(C)[C@@H]5CC[C@]43C)[C@@H]12` ?
**Result** inactive

**Query** Entry `CCCCCCCCCCCCNC(=O)N[C@H](C(=O)N[C@H]1/C=C/OCCNC(=O)/C=C/[C@H](C(C)C)NC1=O)C(C)C` : call = ?
**Result** inactive

**Query** How was `Cc1ccc(CNc2ccc(Cl)cc2NCc2ccc(C)c(O)c2)cc1O` classified in this test?
**Result** inactive
